- assay system: human ether-à-go-go-related gene (hERG) potassium channel (human);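 note: peak tail current of the secondary pulse compared with the same well before compound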
- Sequence (Q12809 whole entry, looked up): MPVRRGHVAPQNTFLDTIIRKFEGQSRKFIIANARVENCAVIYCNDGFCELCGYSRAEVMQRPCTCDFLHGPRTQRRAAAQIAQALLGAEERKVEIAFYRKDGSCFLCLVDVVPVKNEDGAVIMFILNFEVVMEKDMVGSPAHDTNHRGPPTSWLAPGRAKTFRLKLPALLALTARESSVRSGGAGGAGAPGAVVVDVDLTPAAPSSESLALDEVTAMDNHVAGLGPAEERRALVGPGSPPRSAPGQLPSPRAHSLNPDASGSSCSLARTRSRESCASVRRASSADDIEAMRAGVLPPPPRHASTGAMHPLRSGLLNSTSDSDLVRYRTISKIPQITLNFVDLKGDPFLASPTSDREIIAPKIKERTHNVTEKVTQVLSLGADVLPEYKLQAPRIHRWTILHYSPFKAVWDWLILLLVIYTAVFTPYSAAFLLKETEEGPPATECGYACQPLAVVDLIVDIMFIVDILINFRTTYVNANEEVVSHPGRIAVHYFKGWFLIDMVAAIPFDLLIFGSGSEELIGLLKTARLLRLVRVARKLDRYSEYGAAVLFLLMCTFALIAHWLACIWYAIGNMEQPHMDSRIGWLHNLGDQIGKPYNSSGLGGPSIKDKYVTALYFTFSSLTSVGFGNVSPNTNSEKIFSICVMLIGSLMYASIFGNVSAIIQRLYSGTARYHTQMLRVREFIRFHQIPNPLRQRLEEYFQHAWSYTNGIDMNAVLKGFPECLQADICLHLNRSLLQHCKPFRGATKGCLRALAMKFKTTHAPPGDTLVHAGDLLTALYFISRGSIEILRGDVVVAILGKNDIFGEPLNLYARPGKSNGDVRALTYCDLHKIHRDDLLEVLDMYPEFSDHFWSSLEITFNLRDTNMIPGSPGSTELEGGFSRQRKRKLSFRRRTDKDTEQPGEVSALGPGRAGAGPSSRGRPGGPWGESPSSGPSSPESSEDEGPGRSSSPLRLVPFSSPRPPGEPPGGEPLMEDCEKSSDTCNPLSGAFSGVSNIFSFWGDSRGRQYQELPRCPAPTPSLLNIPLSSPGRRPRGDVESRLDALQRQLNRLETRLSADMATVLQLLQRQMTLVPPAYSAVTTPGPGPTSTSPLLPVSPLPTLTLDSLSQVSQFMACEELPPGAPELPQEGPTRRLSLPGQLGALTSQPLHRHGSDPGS
- method: primary screen, population patch clamp on CHO cells stably expressing hERG; higher = less effect of the substance
The whole screen tested about 310,000 compounds, of which about 14,000 (4.5%) showed an effect of 50% or more. The effect is printed as a negative number. The entries come from a sample that favours strong results as a whole.
measured parameter: hERG current change (%, negative = inhibition) at 10uM (%)
Just the number please, in %, no unit attached.

- molecule: "COc1ccccc1C(O)(C(=O)NN(C)c1ccccc1)c1ccccc1OC"
  assay system: "human ether-à-go-go-related gene (hERG) potassium channel (human)"
  uom: "%"
  result: 9.03
- molecule: "CC1CC(C)CN(CCC(=O)Nc2ccc3c(c2)CCC3)C1.Cl (stereo not shown)"
  assay system: "human ether-à-go-go-related gene (hERG) potassium channel (human)"
  uom: "%"
  result: -43.6
- molecule: "Cc1oncc1C(=O)NC(C)C"
  assay system: "human ether-à-go-go-related gene (hERG) potassium channel (human)"
  uom: "%"
  result: -3.53
- molecule: "NC(=O)c1cccnc1Nc1ccccc1F"
  assay system: "human ether-à-go-go-related gene (hERG) potassium channel (human)"
  uom: "%"
  result: 0.0995
- molecule: "COc1ccc(CCn2c(SCC(=O)Nc3cc(C)on3)nc3ccccc3c2=O)cc1OC"
  assay system: "human ether-à-go-go-related gene (hERG) potassium channel (human)"
  uom: "%"
  result: 0.454
- molecule: "COc1ccccc1-n1c(O)c(C=NCCN2CCNCC2)c(=O)[nH]c1=O"
  assay system: "human ether-à-go-go-related gene (hERG) potassium channel (human)"
  uom: "%"
  result: 14.4
- molecule: "Cc1cccc(NC(=O)CCN2CC(C)CC(C)C2)c1.Cl (stereo not shown)"
  assay system: "human ether-à-go-go-related gene (hERG) potassium channel (human)"
  uom: "%"
  result: -49.2
- molecule: "C=CCN(c1ccccc1)S(=O)(=O)c1cc(C(=O)NC2=NCCS2)ccc1Cl"
  assay system: "human ether-à-go-go-related gene (hERG) potassium channel (human)"
  uom: "%"
  result: 63.3

Form: molecule = CCN1C(=O)NC(=O)/C(=C/c2cc(C)n(-c3sc(C)c(C)c3C#N)c2C)C1=O ; hERG current change (%, negative = inhibition) at 10uM = -4.66

Please fill in: hERG current change (%, negative = inhibition) at 10uM reported for COC(=O)N/N=C(\C)c1ccc(C)c([N+](=O)[O-])c1 = -0.21

====

- assay system: human ether-à-go-go-related gene (hERG) potassium channel (human);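 note: peak tail current of the secondary pulse compared with the same well before compound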
- method: primary screen, population patch clamp on CHO cells stably expressing hERG; higher = less effect of the substance
About 14,000 (4.5%) of roughly 310,000 compounds showed an effect of 50% or more. Effects have a minus sign here. Only a selection was taken, and strong results are over-represented in it overall.
Quick reference for hERG current change (%, negative = inhibition) at 10uM among some compounds
Give your result in % as a bare value.

- compound: "COc1ccccc1NC(=O)Cn1cnc2c(nc3n2CCCCC3)c1=O"
  assay system: "human ether-à-go-go-related gene (hERG) potassium channel (human)"
  result: -11.4
- compound: "Cc1ccc(CNC(=O)C2CCC(=O)N2Cc2ccccc2Cl)cc1 (centres unmarked)"
  assay system: "human ether-à-go-go-related gene (hERG) potassium channel (human)"
  result: 2.52
- compound: "CCn1cc(C(=O)N2CCn3c(nc4ccccc43)C2)c(=O)c2ccc(C)nc21"
  assay system: "human ether-à-go-go-related gene (hERG) potassium channel (human)"
  result: -12.4
- compound: "COc1ccc(CCNC(=S)Nc2ccc(C)cc2C)cc1"
  assay system: "human ether-à-go-go-related gene (hERG) potassium channel (human)"
  result: 2.89
- compound: "Cc1ccsc1C(=O)c1sccc1C"
  assay system: "human ether-à-go-go-related gene (hERG) potassium channel (human)"
  result: -3.08

Lab note: measured hERG current change (%, negative = inhibition) at 10uM of CNCC[C@H](Oc1cccc2ccccc12)c1cccs1 was -37.8

Per the records, this compound ( COc1ccc(OC)c(N2C(=O)NC(=O)C3(Cc4cc(C)ccc4N(C)C3)C2=O)c1 (centres unmarked) ) has hERG current change (%, negative = inhibition) at 10uM equal to -5.52

Consider O=C(O)CCC(=O)N1CCN(c2nc(-c3ccccc3)c3cc(Br)ccc3n2)CC1 . Its measured hERG current change (%, negative = inhibition) at 10uM is 3.79

Summary for this compound, N#Cc1cnn(-c2cccc(Cl)c2)c1N : hERG current change (%, negative = inhibition) at 10uM is 11.6

Per the records, this compound ( CNCC[C@H](Oc1cccc2ccccc12)c1cccs1.Cl ) has hERG current change (%, negative = inhibition) at 10uM equal to -36

hERG current change (%, negative = inhibition) at 10uM reported for this compound Cc1ccc(SC(C)C(=O)NCc2cccnc2)cc1 (centres unmarked) : 5.44

Entry source: paper PMC4336329
